- target.or.system: T1, memapsin 2 (Homo sapiens, UniProt P56817)
- T1 construct: pET-11 vector-derived residues 1-15 of promemapsin 2-T1 (N, cleaved yes); made in house; host or cells: E. coli
- T1 sequence (P56817 41-454 limits assumed): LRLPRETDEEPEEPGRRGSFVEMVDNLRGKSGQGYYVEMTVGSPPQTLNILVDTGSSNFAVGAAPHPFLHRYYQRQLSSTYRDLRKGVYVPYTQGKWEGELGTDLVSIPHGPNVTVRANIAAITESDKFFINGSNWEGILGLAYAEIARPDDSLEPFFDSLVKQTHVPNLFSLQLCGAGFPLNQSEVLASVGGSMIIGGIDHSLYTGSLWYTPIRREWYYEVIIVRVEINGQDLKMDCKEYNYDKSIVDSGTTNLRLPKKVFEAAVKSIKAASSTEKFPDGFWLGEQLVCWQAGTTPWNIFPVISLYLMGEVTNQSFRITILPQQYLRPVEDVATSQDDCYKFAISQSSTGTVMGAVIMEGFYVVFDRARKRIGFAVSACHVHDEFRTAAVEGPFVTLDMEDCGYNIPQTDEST
- experimental.protocol: Inhibition of memapsin 2 proteolytic activity, fluorogenic substrate FS-2
- Type: biochemical
- measurement.setup: memapsin 2; independent of substrate, converted from Ki apparent; read-out: Ki
pKi: −log10 of the molar value.
endpoint.name: pKi

Worked examples, 5 molecules total:
# chemical.structure, pKi
measured = [
    ("CC(C)C[C@H](NC(=O)OC(C)(C)C)[C@@H](O)C[C@@H](C)C(=O)N[C@@H](C)C(=O)NCc1ccccc1", 2.62),
    ("CSCC[C@H](NC(=O)[C@@H](NC(=O)OC(C)(C)C)C(C)C)C(=O)N[C@@H](CC(C)C)[C@@H](O)C[C@H](C(=O)N[C@H](C(=O)NCc1ccccc1)C(C)C)C(C)C", 6.37),
    ("CSCC[C@H](NC(=O)[C@@H](NC(=O)OC(C)(C)C)C(C)C)C(=O)N[C@@H](CC(C)C)[C@@H](O)C[C@@H](C)C(=O)N[C@@H](CC(C)C)C(=O)NCCc1c[nH]c2ccccc12", 7.37),
    ("CCCCNC(=O)[C@H](C(C)C)N1CC[C@@](C)(C[C@H](O)[C@H](CC(C)C)NC(=O)[C@H](CCSC)NC(=O)OCn2nc(C)cc2C)C1=O", 6.55),
    ("COc1cccc(C(=O)N[C@@H](CCSC)C(=O)N[C@@H](CC(C)C)[C@@H](O)C[C@@H](C)C(=O)N[C@@H](CC(C)C)C(=O)NC(C)C)c1", 6.09),
]

1. CSCC[C@H](NC(=O)NCc1ccco1)C(=O)N[C@@H](CC(C)C)[C@@H](O)C[C@@H](C)C(=O)N[C@H](C(=O)NCc1ccccc1)C(C)C
2. CSCC[C@H](NC(=O)OCCn1nc(C)c2c1CCC2)C(=O)N[C@@H](CC(C)C)[C@@H](O)C[C@@H](C)C(=O)N[C@@H](CC(C)C)C(=O)NC(C)C
Q) Returns the identifier with the smallest measured pKi among 1 and 2 . Please indicate the selected item by its label.
A) 2

----------
- target.or.system: T1, memapsin 2 (Homo sapiens, UniProt P56817)
- T1 construct: pET-11 vector-derived residues 1-15 of promemapsin 2-T1 (N, cleaved yes); made in house; host or cells: E. coli
- experimental.protocol: Inhibition of memapsin 2 proteolytic activity, fluorogenic substrate FS-2
- Type: biochemical
- measurement.setup: memapsin 2; independent of substrate, converted from Ki apparent; read-out: Ki
pKi: −log10 of the molar value.
endpoint.name: pKi

// solved cases for pKi follow
# compound, pKi
measured = [
    ("CCC[C@H](C[C@H](O)[C@H](CC(C)C)NC(=O)[C@H](CSC)NC(=O)c1cccc(O)c1C)C(=O)N[C@H](C(=O)NCc1ccccc1)C(C)C", 6.08),
    ("Cc1cc(C)n(CCOC(=O)N[C@@H](CCN2CCOCC2)C(=O)N[C@@H](CC(C)C)[C@@H](O)C[C@@H](C)C(=O)N[C@@H](CC(C)C)C(=O)NC(C)C)n1", 5.28),
    ("CSCC[C@H](NC(=O)OCc1ccnn1C)C(=O)N[C@@H](CC(C)C)[C@@H](O)C[C@@H](C)C(=O)N[C@H](C(=O)NCC(C)C)C(C)C", 6.87),
]

A. CC(C)C[C@H](NC(=O)[C@@H]1CC(=O)NC/C=C\CCOC(=O)N[C@@H](C(C)C)C(=O)N1)[C@@H](O)C[C@@H](C)C(=O)N[C@H](C(=O)NCc1ccccc1)C(C)C
B. CSCC[C@H](NC(=O)OCc1cccnc1)C(=O)N[C@@H](CC(C)C)[C@@H](O)C[C@@H](C)C(=O)N[C@H](C(=O)NCc1ccccc1)C(C)C
C. CSCC[C@H](C[C@H](O)[C@H](Cc1ccccc1)NC(=O)[C@H](CCSC)NC(=O)[C@@H](NC(=O)OC(C)(C)C)C(C)C)C(=O)N[C@H](C(=O)NCc1ccccc1)C(C)C
D. CSCC[C@H](NC(=O)[C@@H](NC(=O)c1cccc(O)c1C)C(C)C)C(=O)N[C@@H](CC(C)C)[C@@H](O)C[C@@H](C)C(=O)N[C@@H](CC(C)C)C(=O)NCc1ccccc1
E. CC(C)C[C@H](NC(=O)[C@H](CCS(C)(=O)=O)NC(=O)[C@@H](NC(=O)OC(C)(C)C)C(C)C)[C@@H](O)C[C@@H](C)C(=O)N[C@H](CO)C(C)C
Q) // sort entries: pKi, high to low Present the labels in the sequence the task asks for.
A) A, C, B, D, E
(A: 7.89, C: 7.44, B: 6.06, D: 5.22, E: 4.51)

a. CSCC[C@H](NC(=O)[C@@H](NC(=O)OC(C)(C)C)C(C)C)C(=O)N[C@@H](CC(C)C)[C@@H](O)C[C@@H](C)C(=O)N[C@@H](CC(C)C)C(=O)NCc1ccco1
b. CC[C@H](C)[C@H](NC(=O)[C@H](C)C[C@H](O)[C@H](CC(C)C)NC(=O)C(CCSC)NC(=O)[C@H](CC(C)C)NC(=O)OC(C)(C)C)C(=O)NCc1ccccc1 (stereo partly drawn)
Q) Return label of the item with the larger pKi. Candidates: a , b . Answer with the label corresponding to your selection.
A) a
(a: 7.51, b: 6.74)

----------
- target.or.system: T1, memapsin 2 (Homo sapiens, UniProt P56817)
- T1 construct: pET-11 vector-derived residues 1-15 of promemapsin 2-T1 (N, cleaved yes); made in house; host or cells: E. coli
- experimental.protocol: Inhibition of memapsin 2 proteolytic activity, fluorogenic substrate FS-2
- Type: biochemical
- measurement.setup: memapsin 2; apparent Ki in presence of substrate FS-2; read-out: Ki app
pKi: −log10 of the molar value.
endpoint.name: pKi

I. CCCCNC(=O)[C@@H](NC(=O)[C@H](C)C[C@H](O)[C@H](CC(C)C)NC(=O)[C@H](CCSC)NC(=O)[C@H](CC(C)C)NC(=O)OC(C)(C)C)C(C)C
II. CC[C@H](C)[C@H](NC(=O)[C@H](C)C[C@H](O)[C@H](CC(C)C)NC(=O)C(CCSC)NC(=O)[C@H](CC(C)C)NC(=O)OC(C)(C)C)C(=O)NCc1ccccc1 (stereo partly drawn)
III. COc1cccc(C(=O)N[C@@H](CCSC)C(=O)N[C@@H](CC(C)C)[C@@H](O)C[C@@H](C)C(=O)N[C@@H](CC(C)C)C(=O)NC(C)C)c1OC
Q) Write the entries in order, lowest recorded pKi first. List the labels in the requested order.
A) III, II, I

----------
- target.or.system: T1, memapsin 2 (Homo sapiens, UniProt P56817)
- T1 construct: pET-11 vector-derived residues 1-15 of promemapsin 2-T1 (N, cleaved yes); made in house; host or cells: E. coli
- experimental.protocol: Inhibition of memapsin 2 proteolytic activity, fluorogenic substrate FS-2
- Format: biochemical
- measurement.setup: memapsin 2; apparent Ki in presence of substrate FS-2; read-out: Ki app
pKi: −log10 of the molar value.
endpoint.name: pKi

Use the examples below as a reference point.
# molecule, pKi
measured = [
    ("CC(C)C[C@H](NC(=O)[C@H](C)C[C@H](O)[C@H](CC(C)C)NC(=O)[C@H](CCS(C)(=O)=O)NC(=O)[C@@H](NC(=O)OC(C)(C)C)C(C)C)C(=O)NC1Cc2ccccc2C1 [MMI-067]", 7.13),
    ("CCC[C@H](C[C@H](O)[C@H](CC(C)C)NC(=O)[C@H](CSC)NC(=O)c1cccc(O)c1C)C(=O)N[C@H](C(=O)NCc1ccccc1)C(C)C [MMI-032]", 5.87),
    ("CC(C)C[C@H](NC(=O)[C@H](CCS(C)(=O)=O)NC(=O)[C@@H](NC(=O)OC(C)(C)C)C(C)C)[C@@H](O)C[C@@H](C)C(=O)N[C@H](CO)C(C)C [MMI-043]", 4.31),
]

a. CC(C)C[C@H](NC(=O)OC(C)(C)C)C(=O)N[C@@H](CC1CCCO1)C(=O)N[C@@H](CC(C)C)[C@@H](O)C[C@@H](C)C(=O)N[C@@H](CC(C)C)C(=O)NC(C)C (some centres unmarked) [MMI-205]
b. CSCC[C@H](NC(=O)OCc1cc(C)nn1C)C(=O)N[C@@H](CC(C)C)[C@@H](O)C[C@@H](C)C(=O)N[C@H](C(=O)NCC(C)C)C(C)C [MMI-193]
Q) Look at a and b . Which one has the lower recorded pKi number? Write the label of whichever entry you select.
A) b

A. CSCC[C@H](NC(=O)OCCn1nc(C)c2c1CCC2)C(=O)N[C@@H](CC(C)C)[C@@H](O)C[C@@H](C)C(=O)N[C@@H](CC(C)C)C(=O)NC(C)C [MMI-220]
B. CSCC[C@H](NC(=O)[C@@H](NC(=O)OC(C)(C)C)C(C)C)C(=O)N[C@@H](CC(C)C)[C@@H](O)C[C@@H](C)C(=O)N[C@@H](CC(C)C)C(=O)N1CCN(C)CC1 [MMI-184]
C. CSCC[C@H](NC(=O)OCn1nc(C)cc1C)C(=O)N[C@@H](CC(C)C)[C@@H](O)C[C@@H](C)C(=O)N[C@H](C(=O)NCc1ccccc1)C(C)C [MMI-138]
D. CSCC[C@H](NC(=O)[C@H](CC(C)C)NC(=O)OC(C)(C)C)C(=O)N[C@@H](CC(C)C)[C@H](O)C[C@H](C)C(=O)N[C@H](C(=O)NCc1ccccc1)C(C)C [MMI-133]
E. CCCCNC(=O)[C@H](C(C)C)N1CC[C@@](C)(C[C@H](O)[C@H](CC(C)C)NC(=O)[C@H](CCSC)NC(=O)OCn2nc(C)cc2C)C1=O [MMI-182]
Q) Order the 5 molecules from highest to lowest pKi. Order the labels as requested and give them as your answer.
A) D, C, B, E, A
(D: 9.28, C: 7.85, B: 6.71, E: 6.35, A: 5.35)
